target.under.test: PTPN13_2, Q12923
Sequence (Q12923 1363-1462): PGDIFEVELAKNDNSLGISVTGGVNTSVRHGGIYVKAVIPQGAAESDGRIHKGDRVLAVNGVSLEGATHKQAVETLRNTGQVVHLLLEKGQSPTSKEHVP
assay.text: holdup assay
Set-up: key: below the threshold = too weak to quantify, mostly under pKd 3.1 to 4
test.settings: plain residues with an end cap or a label only (N-terminal biotin on a linker: ttds)
measured.quantity: pKd

Below: 4 binders and their reported pKd.
Request: If you can, please state the reported pKd value of PPRQRSETQV [HPV82-E6, Q9IR59] .
Response: below the threshold

Request: So what does the record say about pKd for SHSSKGETAV [FZD7, O75084] ?
Response: below the threshold

Request: Sample KLVIKTETTV [RASSF6, Q6ZTQ3] — what was its pKd?
Response: below the threshold

Request: Consider the binder shown here: SGGKRKETLV [NET1, Q7Z628] What is its recorded pKd?
Response: below the threshold

Now for another entry.
Request: Form field: reported pKd of PSRDRKETSI [RALBP1, Q15311]
Response: 3.79
